Numbers sourced from ChEMBL document CHEMBL1275537.

System: Mycolicibacterium smegmatis
Experiment: Antibacterial activity against nonpigmented rapidly growing Mycobacterium smegmatis after 3 days by broth microdilution method
Format: functional
Details: 72 h
Reported MIC values for a set of compounds
Dear colleague, please return just the value in µg/mL, with no unit written.

Observe how each entry below is paired with its result.
CO[C@@]1(NC(=O)Cc2cccs2)C(=O)N2C(C(=O)O)=C(COC(N)=O)CS[C@@H]21 | 1
CC[C@H]1OC(=O)[C@H](C)[C@@H](O[C@H]2C[C@@](C)(OC)[C@@H](O)[C@H](C)O2)[C@H](C)[C@@H](O[C@@H]2O[C@H](C)C[C@H](N(C)C)[C@H]2O)[C@](C)(O)C[C@@H](C)C(=O)[C@H](C)[C@@H](O)[C@]1(C)O | 0.12

# context switch: different compound, same MIC
MIC reported for this compound CC[C@H]1OC(=O)[C@H](C)[C@@H](O[C@H]2C[C@@](C)(OC)[C@@H](O)[C@H](C)O2)[C@H](C)[C@@H](O[C@@H]2O[C@H](C)C[C@H](N(C)C)[C@H]2O)[C@](C)(O)C[C@@H](C)CN(C)[C@H](C)[C@@H](O)[C@]1(C)O : 0.06
